// data source = ChEMBL document CHEMBL1123382

test system: Rattus norvegicus; assay: Compound (125I labeled) was evaluated for the total radioactivity in stacking gel at 30 min after intravenous administration.; type: functional
Property name: Total radioactivity
Phrase the answer as number then unit, nothing more needed.

Molecule	Data value
Nc1c(I)cc(I)c(CCCCCCCCCCCC(=O)OCC(COC(=O)CCCCCCCCCCCc2c(I)cc(I)c(N)c2I)OC(=O)CCCCCCCCCCCc2c(I)cc(I)c(N)c2I)c1I	5.8%
CCCCCCCCCCCCCCCC(=O)OC(COC(=O)Cc1c(I)cc(I)c(N)c1I)COC(=O)Cc1c(I)cc(I)c(N)c1I	16.6%
CCCCCCCCCCCCCCCC(=O)OC(COC(=O)CCCCCCCCCCCCCCCCc1c(I)cc(I)c(N)c1I)COC(=O)CCCCCCCCCCCCCCCCc1c(I)cc(I)c(N)c1I	9.7%

Query: Please report the measured Total radioactivity for CCCCCCCCCCCCCCCC(=O)OC(COC(=O)CCCCCCCCCCCc1c(I)cc(I)c(N)c1I)COC(=O)CCCCCCCCCCCc1c(I)cc(I)c(N)c1I
Reply: 8.6%

Query: Please report the measured Total radioactivity for Nc1c(I)cc(I)c(CCCCCCCCCCCCCCCCC(=O)OCC(COC(=O)CCCCCCCCCCCCCCCCc2c(I)cc(I)c(N)c2I)OC(=O)CCCCCCCCCCCCCCCCc2c(I)cc(I)c(N)c2I)c1I
Reply: 3.8%

Query: Please report the measured Total radioactivity for CCC(Cc1c(I)cc(I)c(N)c1I)C(=O)OCC(COC(=O)C(CC)Cc1c(I)cc(I)c(N)c1I)OC(=O)C(CC)Cc1c(I)cc(I)c(N)c1I (stereo unspecified)
Reply: 9.9%
